Each record here notes measured log10(IC50).
- EXPERIMENTAL_SYSTEM: hα2A receptor (Homo sapiens, UniProt P08913)
- Construct: expressed in transfected cells; host or cells: CHO cells, stably transfected; membrane preparation
- Sequence (P08913 whole entry): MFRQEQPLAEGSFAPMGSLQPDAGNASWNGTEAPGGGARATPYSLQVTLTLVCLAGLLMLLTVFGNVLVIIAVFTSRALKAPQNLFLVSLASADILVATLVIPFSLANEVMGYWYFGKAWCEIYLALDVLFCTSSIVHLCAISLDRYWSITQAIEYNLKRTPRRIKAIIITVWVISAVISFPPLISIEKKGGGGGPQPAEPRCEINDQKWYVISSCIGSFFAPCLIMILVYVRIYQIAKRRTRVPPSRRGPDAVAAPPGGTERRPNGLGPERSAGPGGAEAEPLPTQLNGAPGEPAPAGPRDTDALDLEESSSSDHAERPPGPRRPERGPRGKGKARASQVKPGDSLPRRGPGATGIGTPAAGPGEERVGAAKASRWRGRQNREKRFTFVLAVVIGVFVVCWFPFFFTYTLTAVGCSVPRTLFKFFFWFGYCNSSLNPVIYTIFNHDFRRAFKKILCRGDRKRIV
- EXPERIMENT_DESCRIPTION: Radioligand binding experiment for α2A-adrenoceptor ([3H]raulwolscine, CHO cell membranes)
- COND: [3H]raulwolscine binding, read-out: h-α2A pIC50 (converted)
Friendly reminder: values = log10 of IC50, unit µM.

// below: answered compounds
Please give the measured log10(IC50) for this compound: C/C(=C\c1ccccc1)CN1CCC(Nc2nccn(Cc3ccc(OC(F)(F)F)cc3)c2=O)CC1 [3-15]
-0.60

Please give the measured log10(IC50) for this compound: C/C(=C\c1ccccc1)CN1CCN(c2nccn(C/C=C/c3ccccc3)c2=O)CC1 [12-3]
-0.40

Please give the measured log10(IC50) for this compound: C/C(=C\c1ccccc1)CN1CCC(Nc2nccn(Cc3ccc([N+](=O)[O-])cc3)c2=O)CC1 [5-25]
-0.90

Please give the measured log10(IC50) for this compound: C/C(=C\c1ccccc1)CN1CCC(Nc2nccn(CC(=O)N(C)CCN(C)C)c2=O)CC1 [1-108]
-1.30

Please give the measured log10(IC50) for this compound: CCN(CC)c1cccc(-n2ccnc(NC3CCN(C/C(C)=C/c4ccccc4)CC3)c2=O)c1 [1-17]
-2.30

Please give the measured log10(IC50) for this compound: C/C(=C\c1ccccc1)CN1CCC(Nc2nccn(C/C=C/c3ccccc3)c2=O)CC1 [5-28]
-0.80

Please give the measured log10(IC50) for this compound: C/C(=C\c1ccccc1)CN1CCC(Nc2nccn(-c3ccc(CN4CCOCC4)cc3)c2=O)CC1 [2-44]
-1.30

Please give the measured log10(IC50) for this compound: CCOC(=O)Cn1ccnc(NC2CCN(C/C(C)=C/c3ccccc3)CC2)c1=O [3-16]
-0.90

Please give the measured log10(IC50) for this compound: C/C(=C\c1ccccc1)CN1CCC(Nc2nccn(Cc3ccco3)c2=O)CC1 [6-2]
-0.90

Please give the measured log10(IC50) for this compound: C/C(=C\c1ccccc1)CN1CCC(Nc2nccn(Cc3ccc(CNC(=O)NC4CCCCC4)cc3)c2=O)CC1 [1-118]
-0.40

Continuing:
Please give the measured log10(IC50) for this compound: C/C(=C\c1ccccc1)CN1CCC(Nc2nccn(CCCOc3ccccc3)c2=O)CC1 [3-19]
-1.20

Please give the measured log10(IC50) for this compound: C/C(=C\c1ccccc1)CN1CCC(Nc2nccn(Cc3ccccc3)c2=O)CC1 [5-8]
-0.70

Please give the measured log10(IC50) for this compound: CCCNCc1cccc(-n2ccnc(NC3CCN(C/C(C)=C/c4ccccc4)CC3)c2=O)c1 [1-11]
-2.50

Please give the measured log10(IC50) for this compound: C/C(=C\c1ccccc1)CN1CCC(Nc2nccn(CC(=O)Nc3ccccc3)c2=O)CC1 [1-40]
-1.30

Please give the measured log10(IC50) for this compound: C/C(=C\c1ccccc1)CN1CCC(Nc2nccn(-c3ccc(CNCCN4CCOCC4)cc3)c2=O)CC1 [1-150]
-1.00

Please give the measured log10(IC50) for this compound: C/C(=C\c1ccccc1)CN1CCC(Nc2nccn(CCCNS(=O)(=O)c3ccccc3)c2=O)CC1 [1-158]
-1.00

Please give the measured log10(IC50) for this compound: C/C(=C\c1ccccc1)CN1CCC(N(C)c2nccn(CCN3CCCCC3)c2=O)CC1 [15-3]
-1.00

Please give the measured log10(IC50) for this compound: C/C(=C\c1ccccc1)CN1CCC(Nc2nccn(Cc3csc(C)n3)c2=O)CC1 [6-7]
-0.60
